- assay.details: AUC in rat at 10 umol/kg, sc
- Assay type: ADME, organism-based
- recorded.conditions: plasma
property.label: AUC (µM·h)
# number only, unit µM·h dropped from output

I have this molecule here, `O=C1NCC2(CCNCC2)c2[nH]c(-c3ccnc(-c4ccc5c(c4)OCO5)n3)cc21` , and I need its recorded AUC.
2.71

----------
- assay.details: Permeability of the compound by PAMPA
- Type: ADME
- recorded.conditions: read-out: permeability
property.label: Papp (×10⁻⁶ cm/s)
# number only, unit ×10⁻⁶ cm/s dropped from output

I have this compound here, `O=C1NCCc2[nH]c(-c3ccnc(-c4cnc5ccccc5c4)c3)cc21` , and I need its recorded Papp.
0.6
